- SUBJECT OF TEST: UniProt O60930
QUANTITY: pIC50
API: returns pIC50 as number; meaning -log10 of concentration in mol/L.

>>> number("O=C1/C(=C/c2ccc(O)c(O)c2)SC(=S)N1c1ccc(O)cc1")
5.46
>>> number("O=C1NC(=O)/C(=C/c2ccc(-c3ccc(O)c(C(=O)O)c3)o2)S1")
6.70
>>> number("O=C1Nc2ccc(I)cc2C1(O)N1CCOCC1 (stereo not given)")
6.40
>>> number("C[C@]12Cc3cnc(-c4ccccc4)nc3C[C@@H]1CC[C@@H]1[C@@H]2CC[C@@]2(C)[C@H]1CC[C@]2(C)O")
5.55

Next compound, pIC50 to be filled in.
input: If you can, please state the reported pIC50 value of O=C(Oc1ccccc1)Oc1c(Cl)cc2oc(=O)sc2c1Cl .
output: 5.52

---

Parameter 'readout' = pIC50; parameter 'system' = UniProt O60930.
On this scale, pIC50 is minus log10 of a concentration expressed in M (mol/L).

Recorded pIC50, per entry:
>>> number("CCOc1ccc(N2C(=O)/C(=C/c3ccc(I)o3)C(=O)NC2=S)cc1")
5.70
>>> number("Cc1cc(Cl)ccc1OCC(=O)Nc1sc(C)c(C)c1C(N)=O")
5.37
>>> number("CCOc1ccc(N2C(=O)/C(=C/c3ccc(Br)o3)C(=O)NC2=S)cc1")
6.15
>>> number("CC(=O)C1=C(O)[C@@]2(O)C(=O)c3c(c(C)c4ccc(C)c(O)c4c3O)C[C@H]2[C@@H](N)C1=O")
6.15
>>> number("CC(C)=CCC1=C(O)[C@@](O)(CC=C(C)C)C(=O)C(C(=O)CC(C)C)=C1O")
5.70

input: Please report the recorded pIC50 for C=C(C)[C@@H]1CCc2c(O)c(O)c(=O)cc(C)c2C1 .
output: 5.42

input: For the compound shown here, COc1ccc(N2C(=O)/C(=C\c3cn(CC(=O)Nc4ccccc4)c4ccccc34)C(=O)NC2=S)cc1 , give the reported pIC50.
output: 6.21

input: Data request, read-out pIC50, for CC(C)=CCC[C@]1(C)[C@@H](CC=C(C)C)C[C@@]2(CC=C(C)C)C(=O)/C(=C(\O)c3ccc(O)c(O)c3)C(=O)[C@]1(CC=C(C)C)C2=O
output: 5.49

input: // pIC50 lookup, key: Oc1c(Br)cc(/C=N/Nc2nnc3c(n2)[nH]c2ccccc23)c(Br)c1O
output: 6.52

---

- SUBJECT OF TEST: Ribonuclease H1 (Homo sapiens) (UniProt O60930)
- Sequence (O60930 whole entry, looked up): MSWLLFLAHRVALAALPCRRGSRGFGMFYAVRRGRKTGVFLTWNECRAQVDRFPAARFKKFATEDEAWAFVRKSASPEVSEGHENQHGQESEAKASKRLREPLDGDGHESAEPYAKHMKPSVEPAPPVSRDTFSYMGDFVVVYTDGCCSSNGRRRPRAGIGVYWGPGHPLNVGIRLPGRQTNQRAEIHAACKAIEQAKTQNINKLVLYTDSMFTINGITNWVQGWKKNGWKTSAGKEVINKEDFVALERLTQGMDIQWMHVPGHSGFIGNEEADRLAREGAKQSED
- ASSAY TEXT: inhibition of human ribonuclease H1 activity – biochemical, FRET RNA/DNA duplex cleavage, dose response (AID 366);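 also: potency is for inhibitors that lower RNA cleavage and so lower fluorescence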
- EXPERIMENTAL CONDITIONS: human RNase H1, FRET RNA/DNA duplex cleavage, fluorescence
QUANTITY: IC50

>>> result("COc1ccc(-c2c(C#N)c(N)nc(SCC(=O)c3ccc(O)c(O)c3)c2C#N)cc1")
"1100 nM"
>>> result("CCc1c(O)c2c(c(O)c1C(C)=O)C(=O)c1c(cc(O)c(C(=O)O)c1C(=O)O)C2=O")
"3600 nM"

Field: next compound
input: Returns the measured IC50 for the input compound. Input: Cc1ccc(-c2cc(C(=O)Nc3sc(C(=O)OC(C)C)c(C)c3C(N)=O)c3ccccc3n2)s1
output: 800 nM

---

- SUBJECT OF TEST: Ribonuclease H1 (Homo sapiens) (UniProt O60930)
- ASSAY TEXT: inhibition of human ribonuclease H1 activity – biochemical, FRET RNA/DNA duplex cleavage, dose response (AID 366);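 also: potency is for inhibitors that lower RNA cleavage and so lower fluorescence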
- EXPERIMENTAL CONDITIONS: human RNase H1, FRET RNA/DNA duplex cleavage, fluorescence
Active and inactive are the calls of the source. How the calls were made is not given here.
Answer with one of the outcomes T (active), F (inactive)

>>> assigned_label("O=C1C=CC(=O)C(c2cc(Cl)ccc2Cl)=C1")
"T"
>>> assigned_label("Cc1ccc(C)n1-c1ccc(SCC(=O)O)cc1")
"T"
>>> assigned_label("Cc1cc(I)c2c(c1)C1C=CCC1C(C(=O)O)N2 (stereo unspecified)")
"F"
>>> assigned_label("O=[N+]([O-])c1ccc(S(=O)(=O)Cc2ccccc2)c2nonc12")
"T"
>>> assigned_label("O=[N+]([O-])c1c(Cl)cccc1-c1c[nH]cc1Cl")
"F"
>>> assigned_label("CCCCCCCCCCCCCCCC(=O)OCC1OC(n2ccc(N)nc2=O)C(O)C1O (stereo unspecified)")
"T"

input: Query: recorded result category for CC(C)OC(=O)c1cc(O)c(O)c(O)c1 in this test
output: F

input: Look up the recorded call for Cc1sc(NC(=O)Cc2ccccc2)c(C(N)=O)c1C in this test.
output: F

input: # outcome recorded in this test, key = COc1ccc(N2C(=O)/C(=C/c3ccc(I)o3)C(=O)NC2=S)cc1
output: T

input: Answer briefly: the call reported for O=S(=O)(Nc1cccc(C(F)(F)F)c1)c1ccc2ccccc2c1 in this assay.
output: F

input: Per the records of this test, what outcome belongs to C[C@]12CC[C@H]3[C@@H](CCC4=CC(=O)CC[C@@]43C)[C@@H]1CC[C@@H]2C(=O)COS(=O)(=O)c1ccc(Br)cc1 ?
output: T

input: Called result for O=C1C=C/C(=N\S(=O)(=O)c2cc(Cl)ccc2Cl)C=C1Cl
output: T

---

- SUBJECT OF TEST: Ribonuclease H1 (Homo sapiens) (UniProt O60930)
- ASSAY TEXT: inhibition of human ribonuclease H1 activity – biochemical, FRET RNA/DNA duplex cleavage, dose response (AID 366); call rule not given here;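 also: potency is for inhibitors that lower RNA cleavage and so lower fluorescence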
- EXPERIMENTAL CONDITIONS: human RNase H1, FRET RNA/DNA duplex cleavage, fluorescence
// one of active, inactive, no free text

input: What call does the record list for O=C1NC(=S)N(c2ccc(Cl)cc2)C(=O)/C1=C/c1ccc(Br)o1 ?
output: active

---

- SUBJECT OF TEST: Ribonuclease H1 (Homo sapiens)
- ASSAY TEXT: inhibition of human ribonuclease H1 activity – biochemical, FRET RNA/DNA duplex cleavage, dose response (AID 366);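 also: potency is for inhibitors that lower RNA cleavage and so lower fluorescence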
- EXPERIMENTAL CONDITIONS: human RNase H1, FRET RNA/DNA duplex cleavage, fluorescence
Calls of active or inactive are those of the source. No rule for the calls is given here.
Give your call using only these classes: class 1 (active), class 0 (inactive)

>>> assigned_label("CCCc1cc(=O)oc2c3c(c4c(c12)OC(C)(C)C=C4)O[C@@H](C)[C@H](C)[C@@H]3F")
"class 1"
>>> assigned_label("O=c1[nH]c(=S)n(-c2ccccc2F)c(O)c1C=C1C=CC=N1")
"class 1"
>>> assigned_label("CCCCCCCCCCCCCCCCCCOCC(O)CO (stereo not given)")
"class 0"
>>> assigned_label("CC(C)c1ccc(O)c(=O)cc1")
"class 0"

input: State the result this test recorded for Cc1sc(NC(=O)c2ccc(Br)o2)c(C(N)=O)c1C .
output: class 1

---

- SUBJECT OF TEST: Ribonuclease H1 (Homo sapiens) (UniProt O60930)
- ASSAY TEXT: inhibition of human ribonuclease H1 activity – biochemical, FRET RNA/DNA duplex cleavage, dose response (AID 366);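 also: potency is for inhibitors that lower RNA cleavage and so lower fluorescence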
- EXPERIMENTAL CONDITIONS: human RNase H1, FRET RNA/DNA duplex cleavage, fluorescence
Active and inactive are the calls of the source. How the calls were made is not given here.
Tick one outcome: 1.0 (active), 0.0 (inactive)

Example entries and their recorded answers appear below.
>>> assigned_label("FC(F)(F)c1nc2ccc(SSc3ccc4nc(C(F)(F)F)[nH]c4c3)cc2[nH]1")
1.0
>>> assigned_label("Cc1onc(-c2ccccc2)c1C(=O)Nc1sc(C)c(C)c1C(N)=O")
1.0

input: Field: outcome | Entry: O=c1c(O)c(-c2cc(O)c(O)c(O)c2)oc2cc(O)cc(O)c12
output: 1.0

input: Could you kindly confirm the outcome this assay logged for CC(C)=CCc1ccc(O)c(=O)cc1C(C)C ?
output: 0.0

input: Record request — test call for O=C1c2ccccc2C(=O)N1c1ccc(-c2nc3ccc(N4C(=O)c5ccccc5C4=O)cc3[nH]2)cc1
output: 1.0

input: Record lookup: outcome of this test for O=C(O)c1c(Br)c(Br)c(Br)c(Br)c1C1c2ccc(O)cc2Oc2cc(O)ccc21 ?
output: 1.0

---

- SUBJECT OF TEST: Ribonuclease H1 (Homo sapiens)
- ASSAY TEXT: inhibition of human ribonuclease H1 activity – biochemical, FRET RNA/DNA duplex cleavage, dose response (AID 366);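 also: potency is for inhibitors that lower RNA cleavage and so lower fluorescence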
- EXPERIMENTAL CONDITIONS: human RNase H1, FRET RNA/DNA duplex cleavage, fluorescence
Calls of active or inactive are those of the source. How the calls were made is not given here.
Entry note: the call must match one of active, inactive

>>> assigned_label("CC(C)c1cccc(O)c(=O)c1")
"inactive"
>>> assigned_label("C=C/C(C)=C/C[C@]1(C)[C@H](C)CC[C@@]23C(=C[C@H](OC(=O)c4ccc(O)c(OC)c4)C[C@@H]12)[C@@H](OC(C)=O)O[C@H]3OC(C)=O")
"active"
>>> assigned_label("C=CC1=C(C)C2=NC1=CC1=NC(=CC3=C(C)C4=C(O)C(C(=O)OC)C(=C5NC(=C2)C(C)C5CCC(=O)OC/C=C(\\C)CCCC(C)CCCC(C)CCCC(C)C)C4=N3)C(CC)=C1C (stereo not given)")
"inactive"
>>> assigned_label("O=C1C=C(NCCc2cc(Br)c(O)c(Br)c2)C(=O)c2ncccc21")
"active"
>>> assigned_label("O=C(O)/C=C/c1c2ccc(=O)c(O)c-2oc2c(O)c(O)ccc12")
"active"
>>> assigned_label("O=C1C=CC2=C3c4cc(O)c(O)cc4CC3(O)COC2=C1O (stereo not given)")
"active"
>>> assigned_label("Cc1ccc(S(=O)(=O)N=C2C=C(Cl)C(=O)C(Br)=C2)cc1")
"active"
>>> assigned_label("O=C1c2ccccc2C(=O)c2c(O)c(O)cc(O)c21")
"active"
>>> assigned_label("CC1=NN(c2ccc(S(N)(=O)=O)cc2)C(=O)/C1=C/c1ccc(-c2ccc(Cl)cc2Cl)o1")
"active"

Could you now consider this next compound?
input: How was C[N+](C)=c1ccc2nc3c(cc(Nc4ccccc4)c4ccccc43)oc-2c1 classified in this test?
output: active
